target or test system: T1, VEGFR-2 (human, UniProt P35968)
T1 chain: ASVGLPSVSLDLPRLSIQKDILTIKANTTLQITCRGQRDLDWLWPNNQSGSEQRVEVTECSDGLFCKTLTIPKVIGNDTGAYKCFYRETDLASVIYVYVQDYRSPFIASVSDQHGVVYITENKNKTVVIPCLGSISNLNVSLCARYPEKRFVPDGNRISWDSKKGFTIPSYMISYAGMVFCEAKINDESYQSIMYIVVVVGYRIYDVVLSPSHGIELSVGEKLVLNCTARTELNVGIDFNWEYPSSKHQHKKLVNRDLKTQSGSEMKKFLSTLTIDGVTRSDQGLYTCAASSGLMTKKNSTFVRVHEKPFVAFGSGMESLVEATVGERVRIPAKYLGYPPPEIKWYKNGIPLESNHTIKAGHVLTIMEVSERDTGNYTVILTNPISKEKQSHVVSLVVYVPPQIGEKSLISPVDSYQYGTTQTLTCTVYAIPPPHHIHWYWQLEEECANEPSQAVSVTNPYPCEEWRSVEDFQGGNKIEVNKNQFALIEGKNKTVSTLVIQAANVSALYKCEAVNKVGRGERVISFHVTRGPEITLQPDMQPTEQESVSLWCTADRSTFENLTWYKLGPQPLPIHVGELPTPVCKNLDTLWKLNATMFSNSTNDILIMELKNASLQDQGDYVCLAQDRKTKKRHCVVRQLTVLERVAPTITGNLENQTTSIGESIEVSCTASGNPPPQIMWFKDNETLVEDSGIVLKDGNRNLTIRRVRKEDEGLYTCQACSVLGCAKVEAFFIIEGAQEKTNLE
experiment: competition, COS-1
Bridge positions count the residues as written; N and C are the ends. Ends that are not written are not given here.
quantity measured: binding result

Example results:
{"columns": ["binder", "binding result"],
 "data": [
  ["KGRGKRRRECQRPSCKPRR (disulfide 10-15) [P6V8-3NCSC13C18]", "no binding"],
  ["KGRGKRRREKQRPSDKPRR (also: (cap), group not given here) [(cap)P6V8-3NCS]", "no binding"],
  ["CKGRGKRCREKQRPSDKPRR (disulfide 1-8; also: capped amino and carboxyl termini, chemistry of caps not given here) [(cap)P6V8-3NCS1-7CC]", "no binding"],
  ["CAGRGKRCREKQRPSDKPRR (disulfide 1-8) [P6V8-3NCS1-7CCA1]", "no binding"]
]}

[Q] Find the recorded binding result belonging to CAGRGARCREKQRPSDKPRR (disulfide 1-8) [P6V8-3NCS1-7CCA1A5] and report it.
[A] no binding

[Q] Quick check: binding result of AGRGARRREKQRPSDKPRR [P6V8-3NCSA1A5] ?
[A] no binding

[Q] # binding result lookup, item AGRGARAAEKQAPSDKPRR [P6V8-3NCSA1,5,7,8,12]
[A] no binding

[Q] Looking for the measured binding result of CKGRGARCREKQRPSDKPRR (disulfide 1-8) [P6V8-3NCS1-7CCA5] , can you help?
[A] no binding
